Experiment: blood pressure and pulse of treated type 2 diabetic patients
Type: in vivo, human
Details: 2. patient, 56. day, oral 14.5 mg dihydralazine sulphate twice daily; before treatment 79
assay endpoint: pulse (beats/min)
Only the number, expressed in beats/min, is required.

// pulse value for NNc1nnc(NN)c2ccccc12 [dihydralazine] : 77

---

Assay: blood pressure and pulse of treated type 2 diabetic patients
Format: in vivo, human
Conditions: 2. patient, 28. day, oral 14.5 mg dihydralazine sulphate twice daily; before treatment 79
assay endpoint: pulse (beats/min)
Field: numeric (beats/min). Do not append units.

pulse reported for this molecule NNc1nnc(NN)c2ccccc12 [dihydralazine] : 93
